# System: Babesia sp. Xinjiang
# MEASUREMENT DESCRIPTION: Anti-proliferation assay in Babesia sp. Xinjiang
# Format: cell-based
# REPORTED CONDITIONS: Babesia, 96 h, read-out: IC50 in Babesia sp. Xinjiang
Reported IC50 values follow for various molecules
MEASURED PROPERTY: IC50 (µM)

• CCCc1cc(C)[nH]c(=O)c1CNC(=O)c1cc(-c2ccnc(N3CCN(C)CC3)c2)cc2c1cnn2C(C)C = 7.04
• Nc1ncnc2c1ncn2[C@@H]1O[C@H](C[C@@H](N)CC[C@H](N)C(=O)O)[C@@H](O)[C@H]1O = 2.89
• CCCc1cc(C)[nH]c(=O)c1CNC(=O)c1cc(-c2ccc(N3CCN(C(C)C)CC3)nc2)cc2c1cnn2C(C)C = 4.7
• CCN(CC)Cc1cc(Nc2ccnc3cc(Cl)ccc23)ccc1O = 26.6

---

# Tested on: Babesia sp. Xinjiang
# MEASUREMENT DESCRIPTION: Anti-proliferation assay in Babesia sp. Xinjiang
# Assay type: cell-based
# REPORTED CONDITIONS: Babesia, 72 h, read-out: IC50 in Babesia sp. Xinjiang
pIC50: −log10 of the molar value. Where a name gives a salt, the structure may show the parent alone.
Reported pIC50 values follow for various compounds
MEASURED PROPERTY: pIC50

• O=C([C@@H](Cc1cccc(C(F)(F)F)c1)NS(=O)(=O)c1cc(F)c2c(c1)CCNC2)N1CCCC1 [PFI-2 hydrochloride] = 4.97
• O=C(Nc1cccc(C2=NCCN2)c1)Nc1cccc(C2=NCCN2)c1 [Imidocarb dipropionate] = 7.52
• Cc1cn(CCN2CCN(c3ccccc3-c3cc(C#N)cc(C(=O)NCCCN4CCCC4)c3)CC2)c2ccccc12 [LLY-507] = 5.49
• Nc1ncnc2c1ncn2[C@@H]1O[C@H](C[C@@H](N)CC[C@H](N)C(=O)O)[C@@H](O)[C@H]1O [Sinefungin] = 5.65

---

Reported pIC50 values follow for various compounds
# Test system: Babesia sp. Xinjiang
# MEASUREMENT DESCRIPTION: Anti-proliferation assay in Babesia sp. Xinjiang
# Format: cell-based
# REPORTED CONDITIONS: Babesia, 72 h, read-out: IC50 in Babesia sp. Xinjiang
pIC50: −log10 of the molar value.
MEASURED PROPERTY: pIC50

• CCN(CC)Cc1cc(Nc2ccnc3cc(Cl)ccc23)ccc1O = 4.62
• CCCc1cc(C)[nH]c(=O)c1CNC(=O)c1cc(-c2ccnc(N3CCN(C)CC3)c2)cc2c1cnn2C(C)C = 5.16
• COc1cc2nc(N3CCCN(C)CC3)nc(NC3CCN(Cc4ccccc4)CC3)c2cc1OC = 6.46
• CCCc1cc(C)[nH]c(=O)c1CNC(=O)c1cc(-c2ccc(N3CCN(C(C)C)CC3)nc2)cc2c1cnn2C(C)C = 5.41

---

# Test system: MDOK cells
# MEASUREMENT DESCRIPTION: Cytotoxicity on host cells
# Format: cell-based, sheep
# REPORTED CONDITIONS: read-out: IC50 in MDOK cells; 24 h, CCK-8
pIC50: −log10 of the molar value.
MEASURED PROPERTY: pIC50

- N=C(N)c1ccc(-c2ccc(-c3ccc(C(=N)N)cc3)o2)cc1: 4.01

---

# System: Babesia sp. Xinjiang
# MEASUREMENT DESCRIPTION: Anti-proliferation assay in Babesia sp. Xinjiang
# Type: cell-based
# REPORTED CONDITIONS: Babesia, 96 h, read-out: IC50 in Babesia sp. Xinjiang
Counter-ions that a name gives are not always drawn.
Reported IC50 values follow for various compounds
MEASURED PROPERTY: IC50

• CN1C(=O)[C@@]23C[C@]4([C@]56C[C@@]78SS[C@@](CO)(C(=O)N7[C@H]5Nc5ccccc56)N(C)C8=O)c5ccccc5N[C@@H]4N2C(=O)[C@]1(CO)SS3 = > 200 µM
• O=C(Nc1cccc(C2=NCCN2)c1)Nc1cccc(C2=NCCN2)c1 [Imidocarb dipropionate] = 0.02 µM
• Cc1cn(CCN2CCN(c3ccccc3-c3cc(C#N)cc(C(=O)NCCCN4CCCC4)c3)CC2)c2ccccc12 = 2.58 µM
• COc1cc2nc(N3CCCN(C)CC3)nc(NC3CCN(Cc4ccccc4)CC3)c2cc1OC = 0.29 µM
• O=C([C@@H](Cc1cccc(C(F)(F)F)c1)NS(=O)(=O)c1cc(F)c2c(c1)CCNC2)N1CCCC1 [PFI-2 hydrochloride] = 17.5 µM
